tested on: PvdQ acylase [Pseudomonas aeruginosa LESB58]; assay: P. aeruginosa PvdQ acylase inhibitors, primary screen, biochemical, fluorescence, plate reader and imaging, single point (AID 488965); conditions: purified PvdQ acylase, at 10 µM, stronger effect = higher value;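 note: 0% = vehicle neutral wells and 100% = reference inhibitor wells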
Hit rate of the full screen: of about 340,000 compounds, about 210 (0.062%) were called active. What follows is part of a selection rich in actives, with near analogues and random picks from the rest.
// inhibition lookup, one value per entry

| COMPOUND | UNIT OF MEASUREMENT | inhibition |
| --- | --- | --- |
| NS(=O)(=O)c1ccc(CCNC(=O)CN2C(=O)c3ccccc3S2(=O)=O)cc1 | % | 0.254 |
| O=C(NCCc1ccccc1)C1CCC(Cn2c(=O)c3ccccc3n(Cc3cccnc3)c2=O)CC1 (stereo not given) | % | -13.5 |
| CN(C)c1nnnn1-c1ccc(Cl)cc1 | % | -0.634 |
| NC(=O)c1ncc(C(F)(F)F)cc1Oc1ccc(F)cc1 | % | -11.7 |
| COc1ccc(Cn2cc(CN3CCS(=O)(=O)N(Cc4ccc(-c5cccc(Cl)c5)cc4)C(C)C3=O)nn2)cc1 (stereo not given) | % | 6.04 |

Source of measurements: PubChem BioAssay AID488965
